target: mitochondrial sodium-calcium exchanger (mNCE) (Rattus norvegicus, UniProt Q6AXS0); assay: Measurement of the Na-Ca exchanger of rat brain mitochondria (Na-induced Ca-release, Oregon Green fluorescence); conditions: isolated rat brain mitochondria; Ca-efflux rates induced by 20 mM NaCl; rt
Sequence (Q6AXS0 27-585): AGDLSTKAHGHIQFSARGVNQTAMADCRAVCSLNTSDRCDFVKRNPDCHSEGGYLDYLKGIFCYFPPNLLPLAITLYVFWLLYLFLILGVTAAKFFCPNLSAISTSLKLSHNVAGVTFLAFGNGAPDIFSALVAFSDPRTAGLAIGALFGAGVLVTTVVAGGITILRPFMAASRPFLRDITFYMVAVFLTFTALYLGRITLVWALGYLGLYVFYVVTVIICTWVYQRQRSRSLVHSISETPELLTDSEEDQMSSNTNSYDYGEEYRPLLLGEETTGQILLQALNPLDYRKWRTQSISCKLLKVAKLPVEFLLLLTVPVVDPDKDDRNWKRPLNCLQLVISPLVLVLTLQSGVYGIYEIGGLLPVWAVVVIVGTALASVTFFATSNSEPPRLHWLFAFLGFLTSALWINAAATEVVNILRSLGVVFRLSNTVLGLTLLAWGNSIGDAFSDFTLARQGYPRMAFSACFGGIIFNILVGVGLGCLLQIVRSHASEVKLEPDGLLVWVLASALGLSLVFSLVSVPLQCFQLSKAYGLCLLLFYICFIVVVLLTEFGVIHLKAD
Recorded endpoint: pIC50
Please note pIC50 is a logarithmic value: minus log10 of concentration in mol/L. Answer with that number alone.

For O=C1CS(=O)(=O)C(c2ccccc2Cl)c2cc(Cl)ccc2N1 (stereo not shown) the molecule record lists pIC50 as 5.42
